# EXPERIMENTAL_SYSTEM: Platelet-derived growth factor receptor beta (Homo sapiens, UniProt P09619)
# Sequence (P09619 whole entry): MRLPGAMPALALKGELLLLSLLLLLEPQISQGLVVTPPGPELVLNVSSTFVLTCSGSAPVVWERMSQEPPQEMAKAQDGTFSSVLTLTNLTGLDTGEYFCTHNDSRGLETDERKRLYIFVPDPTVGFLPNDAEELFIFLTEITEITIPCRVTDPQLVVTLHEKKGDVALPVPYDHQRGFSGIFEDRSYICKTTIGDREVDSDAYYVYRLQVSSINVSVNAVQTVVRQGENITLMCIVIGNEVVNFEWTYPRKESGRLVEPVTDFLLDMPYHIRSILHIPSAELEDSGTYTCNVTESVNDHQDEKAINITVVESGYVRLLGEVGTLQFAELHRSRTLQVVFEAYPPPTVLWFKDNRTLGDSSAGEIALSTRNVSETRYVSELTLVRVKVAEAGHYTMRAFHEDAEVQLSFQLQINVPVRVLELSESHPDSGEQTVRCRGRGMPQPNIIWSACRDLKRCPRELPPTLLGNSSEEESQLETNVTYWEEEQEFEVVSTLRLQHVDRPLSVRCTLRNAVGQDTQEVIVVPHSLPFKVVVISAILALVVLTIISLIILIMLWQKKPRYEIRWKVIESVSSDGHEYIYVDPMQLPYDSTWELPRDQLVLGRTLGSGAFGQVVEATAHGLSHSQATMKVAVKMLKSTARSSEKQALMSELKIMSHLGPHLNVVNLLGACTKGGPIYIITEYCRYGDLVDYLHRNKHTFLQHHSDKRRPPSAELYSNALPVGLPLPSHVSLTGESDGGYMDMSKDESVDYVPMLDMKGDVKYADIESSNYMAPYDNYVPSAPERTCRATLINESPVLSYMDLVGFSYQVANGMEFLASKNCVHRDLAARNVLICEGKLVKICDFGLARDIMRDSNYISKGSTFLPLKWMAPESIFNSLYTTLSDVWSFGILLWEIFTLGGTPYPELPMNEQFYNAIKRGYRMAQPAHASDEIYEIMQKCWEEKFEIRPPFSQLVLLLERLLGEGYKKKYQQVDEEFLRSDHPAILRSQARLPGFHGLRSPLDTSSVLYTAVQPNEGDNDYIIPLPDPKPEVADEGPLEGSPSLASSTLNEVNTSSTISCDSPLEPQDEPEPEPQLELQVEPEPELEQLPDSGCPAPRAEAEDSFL
# EXPERIMENTAL_PROTOCOL: Inhibition of human recombinant PDGFRbeta expressed in insect cells after 30 mins
TEST_READOUT: IC50

The cases that follow already have their IC50 on record.
>  <ITEM_SMILES>
COc1cc(O)c2c(c1)/C=C\CCCC(=O)/C=C/C[C@H](C)OC2=O

>  <RECORDED_VALUE>
> 100 µM

$$$$
>  <ITEM_SMILES>
COc1cc(O)c2c(c1)/C=C/CCCC(=O)/C=C/C[C@H](C)OC2=O

>  <RECORDED_VALUE>
9.2 µM

$$$$

// moving on: another record for IC50
Please look up its IC50: `COc1cc(O)c2c(c1)/C=C/CCCC(=O)C[C@H](Br)C[C@H](C)OC2=O`
> 100 µM

---

Listed below: pIC50 values for each entry.
# EXPERIMENTAL_SYSTEM: Glycogen synthase kinase-3 alpha (Homo sapiens)
# Sequence (P49840 whole entry): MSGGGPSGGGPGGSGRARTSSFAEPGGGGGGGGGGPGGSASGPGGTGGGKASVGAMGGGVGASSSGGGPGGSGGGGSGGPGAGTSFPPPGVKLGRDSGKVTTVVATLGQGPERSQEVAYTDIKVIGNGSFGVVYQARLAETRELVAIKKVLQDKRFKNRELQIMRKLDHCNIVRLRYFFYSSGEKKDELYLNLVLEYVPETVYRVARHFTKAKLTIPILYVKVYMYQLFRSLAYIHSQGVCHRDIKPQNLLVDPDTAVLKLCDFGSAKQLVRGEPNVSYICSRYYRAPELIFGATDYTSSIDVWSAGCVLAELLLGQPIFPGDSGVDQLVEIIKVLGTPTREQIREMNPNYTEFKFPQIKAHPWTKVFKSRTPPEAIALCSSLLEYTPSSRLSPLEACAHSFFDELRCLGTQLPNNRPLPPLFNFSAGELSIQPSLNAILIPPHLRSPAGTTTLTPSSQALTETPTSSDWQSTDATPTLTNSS
# EXPERIMENTAL_PROTOCOL: Inhibition of human recombinant GSK3alpha in cell free system after 60 mins
pIC50: −log10 of the molar value.

The cases that follow already have their pIC50 on record.
>  <ITEM_SMILES>
COc1cc(O)c2c(c1)CCCCCC(=O)/C=C/C[C@H](C)OC2=O

>  <EXPERIMENTAL_SYSTEM>
Glycogen synthase kinase-3 alpha (Homo sapiens)

>  <RECORDED_VALUE>
< 4.00

$$$$
>  <ITEM_SMILES>
COc1cc(O)c2c(c1)/C=C/CCCC(=O)/C=C/C[C@H](C)OC2=O

>  <EXPERIMENTAL_SYSTEM>
Glycogen synthase kinase-3 alpha (Homo sapiens)

>  <RECORDED_VALUE>
< 4.00

$$$$

// moving on: another record for pIC50
Please look up its pIC50: `COc1cc(O)c2c(c1)/C=C/C[C@@H](O)[C@H](O)C(=O)/C=C\C[C@H](C)OC2=O`
5.72

---

Listed below: IC50 values for each entry.
# EXPERIMENTAL_SYSTEM: Mast/stem cell growth factor receptor Kit (Homo sapiens)
# Sequence (P10721 whole entry): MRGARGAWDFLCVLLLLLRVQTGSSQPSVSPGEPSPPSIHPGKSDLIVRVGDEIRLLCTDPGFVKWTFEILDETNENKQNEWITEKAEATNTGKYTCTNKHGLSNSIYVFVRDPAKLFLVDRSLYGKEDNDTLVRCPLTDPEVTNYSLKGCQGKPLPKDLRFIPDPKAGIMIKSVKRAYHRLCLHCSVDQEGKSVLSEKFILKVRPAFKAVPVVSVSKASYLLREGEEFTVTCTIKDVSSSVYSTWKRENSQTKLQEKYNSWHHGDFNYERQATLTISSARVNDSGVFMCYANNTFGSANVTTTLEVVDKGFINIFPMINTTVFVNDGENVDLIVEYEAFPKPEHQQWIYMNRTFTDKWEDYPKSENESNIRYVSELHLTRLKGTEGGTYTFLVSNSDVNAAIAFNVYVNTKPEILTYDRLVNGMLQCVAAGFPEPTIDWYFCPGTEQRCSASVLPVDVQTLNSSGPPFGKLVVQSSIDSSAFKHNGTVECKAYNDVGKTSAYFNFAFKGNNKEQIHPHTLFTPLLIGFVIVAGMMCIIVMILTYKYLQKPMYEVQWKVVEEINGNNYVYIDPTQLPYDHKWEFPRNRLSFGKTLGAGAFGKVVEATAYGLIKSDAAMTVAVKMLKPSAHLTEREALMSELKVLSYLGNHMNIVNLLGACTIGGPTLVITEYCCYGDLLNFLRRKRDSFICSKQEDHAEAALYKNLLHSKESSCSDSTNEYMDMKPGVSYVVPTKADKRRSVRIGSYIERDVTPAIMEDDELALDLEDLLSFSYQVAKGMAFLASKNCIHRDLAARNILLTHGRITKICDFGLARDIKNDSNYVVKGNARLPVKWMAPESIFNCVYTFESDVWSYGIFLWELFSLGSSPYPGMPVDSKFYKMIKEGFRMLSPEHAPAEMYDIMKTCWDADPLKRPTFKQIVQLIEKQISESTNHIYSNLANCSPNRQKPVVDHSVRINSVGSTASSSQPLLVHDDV
# EXPERIMENTAL_PROTOCOL: Inhibition of human recombinant c-kit kinase in cell free system after 30 mins
Express the result in µM but write the number alone.

>  <ITEM_SMILES>
COc1cc(O)c2c(c1)CCCCCC(=O)C[C@H](Cl)C[C@H](C)OC2=O

>  <EXPERIMENTAL_SYSTEM>
Mast/stem cell growth factor receptor Kit (Homo sapiens)

>  <READOUT_UNITS>
µM

>  <IC50>
47

$$$$
>  <ITEM_SMILES>
COc1cc(O)c2c(c1)/C=C/C[C@@H](O)[C@H](O)C(=O)/C=C\C[C@H](C)OC2=O

>  <EXPERIMENTAL_SYSTEM>
Mast/stem cell growth factor receptor Kit (Homo sapiens)

>  <READOUT_UNITS>
µM

>  <IC50>
0.0096

$$$$
>  <ITEM_SMILES>
COc1cc(O)c2c(c1)CCCCCC(=O)/C=C\C[C@H](C)OC2=O

>  <EXPERIMENTAL_SYSTEM>
Mast/stem cell growth factor receptor Kit (Homo sapiens)

>  <READOUT_UNITS>
µM

>  <IC50>
4.1

$$$$
>  <ITEM_SMILES>
COc1cc(O)c2c(c1)/C=C\CCCC(=O)/C=C/C[C@H](C)OC2=O

>  <EXPERIMENTAL_SYSTEM>
Mast/stem cell growth factor receptor Kit (Homo sapiens)

>  <READOUT_UNITS>
µM

>  <IC50>
1.4

$$$$

Please look up its IC50: `COc1cc(O)c2c(c1)/C=C/CCCC(=O)C[C@H](Br)C[C@H](C)OC2=O`
2.8

---

# EXPERIMENTAL_SYSTEM: Mast/stem cell growth factor receptor Kit (Homo sapiens)
# EXPERIMENTAL_PROTOCOL: Inhibition of human recombinant c-kit kinase in cell free system after 30 mins
TEST_READOUT: IC50 (µM)
Express the result in µM but write the number alone.

>  <ITEM_SMILES>
COc1cc(O)c2c(c1)CCCCCC(=O)C[C@H](Br)C[C@H](C)OC2=O

>  <EXPERIMENTAL_SYSTEM>
Mast/stem cell growth factor receptor Kit (Homo sapiens)

>  <IC50 [µM]>
11

$$$$
>  <ITEM_SMILES>
COc1cc(O)c2c(c1)/C=C\CCCC(=O)C[C@H](Br)C[C@H](C)OC2=O

>  <EXPERIMENTAL_SYSTEM>
Mast/stem cell growth factor receptor Kit (Homo sapiens)

>  <IC50 [µM]>
81

$$$$

// moving on: another record for IC50
Please look up its IC50: `COc1cc(O)c2c(c1)/C=C/CCCC(=O)/C=C/C[C@H](C)OC2=O`
1.3
